- assay protocol: ATG_M_06_CIS: Attagene CIS-FACTORIAL HepG2 Assay for M06 Transcription Factor (Internal Marker) (AID 2282950)
- reported conditions: HepG2 Attagene CIS-FACTORIAL M06 internal marker reporter; actives raise or lower the signal
Activity calls are given as the source filed them. Rule for the calls: active = hit-call score of the fitted dose curve at least 0.9, where 1 is the maximum; inactive = score below 0.9.
measure name: outcome

Field: example entries. Status: answers known.
COC(=O)c1c(C)cc(O)c(C)c1O = inactive
CCOC(=O)c1ccccc1C(=C1C=C(Br)C(=O)C(Br)=C1)c1cc(Br)c(O)c(Br)c1 = inactive
CCN(Cc1cccc(S(=O)(=O)O)c1)c1ccc(C(=C2C=CC(=[N+](CC)Cc3cccc(S(=O)(=O)[O-])c3)C=C2)c2ccccc2)cc1 = inactive
CC1=Nc2ccc3ccccc3c2C1(C)C = inactive
O=S(=O)(Oc1ccc(Cl)cc1Cl)c1ccccc1 = inactive
CCN(CC#N)c1cccc(C)c1 = inactive
NC(CO)(CO)CO = inactive
CCC(CC)C(=O)O = inactive

Problem: # outcome lookup, item CCCCCCOc1cc(C)c(O)c(C)c1C
Solution: inactive

###

- subject of test: Transcription factor Sp1 (Homo sapiens) (UniProt P08047)
- Sequence (P08047 whole entry, looked up): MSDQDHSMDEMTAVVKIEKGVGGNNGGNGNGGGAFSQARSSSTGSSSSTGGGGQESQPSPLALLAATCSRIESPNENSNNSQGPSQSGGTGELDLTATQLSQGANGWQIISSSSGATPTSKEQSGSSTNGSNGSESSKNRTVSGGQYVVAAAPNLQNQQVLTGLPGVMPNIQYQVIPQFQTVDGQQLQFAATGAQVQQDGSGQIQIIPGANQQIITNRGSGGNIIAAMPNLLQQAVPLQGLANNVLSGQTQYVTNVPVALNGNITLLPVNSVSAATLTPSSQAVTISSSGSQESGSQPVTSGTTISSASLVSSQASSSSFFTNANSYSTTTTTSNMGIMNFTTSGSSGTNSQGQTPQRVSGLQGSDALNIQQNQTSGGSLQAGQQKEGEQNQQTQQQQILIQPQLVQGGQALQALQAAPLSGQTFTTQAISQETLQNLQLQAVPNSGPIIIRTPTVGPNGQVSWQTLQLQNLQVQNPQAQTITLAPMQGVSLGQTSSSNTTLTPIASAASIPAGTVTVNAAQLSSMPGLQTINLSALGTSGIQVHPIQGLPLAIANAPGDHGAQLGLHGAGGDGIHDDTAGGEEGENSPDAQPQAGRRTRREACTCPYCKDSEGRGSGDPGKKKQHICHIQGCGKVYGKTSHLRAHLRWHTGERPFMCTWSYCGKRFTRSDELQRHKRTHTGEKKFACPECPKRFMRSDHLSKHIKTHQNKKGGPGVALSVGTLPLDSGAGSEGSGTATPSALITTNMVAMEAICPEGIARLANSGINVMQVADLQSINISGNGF
- assay protocol: ATG_Sp1_CIS: Attagene CIS-FACTORIAL HepG2 Assay for human Specificity Protein 1 (Sp1) (AID 2282961)
- reported conditions: HepG2 Sp1 cis-reporter transcription, actives raise or lower the signal
The source made the active and inactive calls. Rule for the calls: active = hit-call score of the fitted dose curve at least 0.9, where 1 is the maximum; inactive = score below 0.9.
Your response should consist of one outcome taken from T (active), F (inactive)

Some solved cases for reference:
CCCCNc1ccc(NCCCC)c2c1C(=O)c1ccccc1C2=O = F
CNC(=S)NN = F
O=c1[nH]c(=O)c2[nH]c(=O)[nH]c2[nH]1 = F
C=C[C@](C)(O)CC[C@@H]1[C@@]2(C)CCCC(C)(C)[C@@H]2CC[C@@]1(C)O = F
COC(F)(F)C(F)(C(F)(F)F)C(F)(F)F = F

Problem: GET /call?item= O=C1CCCCCN1SSN1CCCCCC1=O returns the recorded outcome of this test.
Solution: T

Problem: GET /call?item= c1cc(C(c2ccc(OCC3CO3)cc2)C(c2ccc(OCC3CO3)cc2)c2ccc(OCC3CO3)cc2)ccc1OCC1CO1 (stereo not drawn) returns the recorded outcome of this test.
Solution: T

Problem: GET /call?item= O=C(Cl)c1cc(C(=O)Cl)cc(C(=O)Cl)c1 returns the recorded outcome of this test.
Solution: F

###

- subject of test: Transcription factor Sp1 (Homo sapiens)
- assay protocol: ATG_Sp1_CIS: Attagene CIS-FACTORIAL HepG2 Assay for human Specificity Protein 1 (Sp1) (AID 2282961)
- reported conditions: HepG2 Sp1 cis-reporter transcription, actives raise or lower the signal
Activity calls are given as the source filed them. The calls were made as follows: active = hit-call score of the fitted dose curve at least 0.9, where 1 is the maximum; inactive = score below 0.9.
Your response should consist of one outcome taken from 1 (yes) for active, 0 (no) for inactive

Some solved cases for reference:
OCCN(CCO)c1ccccc1 = 0 (no)
CC(=O)c1ccc2c(c1)CCCC2 = 0 (no)
CCOCC(=O)O = 0 (no)
COC(=O)c1c(C)cc(O)c(C)c1O = 0 (no)
CN(C)c1ccc(N=Nc2ccccc2C(=O)O)cc1 = 1 (yes)
CCCCCCCC/C=C\CCCCCCCC(=O)OCCO = 0 (no)
COC(=O)c1cc(Cl)ccc1[N+](=O)[O-] = 0 (no)
C=C(C)C(=O)OCC(C)C = 0 (no)
CC(C)(C)C(=O)CCc1ccc(Cl)cc1 = 0 (no)
CCCCCCCC(C)=O = 0 (no)

Problem: GET /call?item= NC(=O)C1CO1 (stereo not given) returns the recorded outcome of this test.
Solution: 0 (no)

Problem: GET /call?item= O=c1cc[nH]c(=S)[nH]1 returns the recorded outcome of this test.
Solution: 0 (no)

Problem: GET /call?item= CCN(CCC#N)c1ccc(N=Nc2c(Cl)cc([N+](=O)[O-])cc2Cl)cc1 returns the recorded outcome of this test.
Solution: 0 (no)

Problem: GET /call?item= Nc1ncn([C@@H]2O[C@H](CO)[C@@H](O)[C@H]2O)c(=O)n1 returns the recorded outcome of this test.
Solution: 0 (no)

Problem: GET /call?item= NC(=O)N=NC(N)=O returns the recorded outcome of this test.
Solution: 0 (no)

###

- assay protocol: ACEA_AR_agonist_AUC_viability: ACEA Biosciences xCELLigence Real-Time Cell Analysis on Androgen Receptor Agonism for Viability (AID 2283775)
- Description: ACEA_AR_agonist is a cell-based, single-readout assay that uses 22Rv1, a human prostate cancer cell line, with measurements taken at 80 hours after chemical dosing in a 384-well plate, although TO5 and TO6 (mc0.srcf) used a 96-well plate. Differences in plate size can be ignored given data normalization.ACEA_AR_80hr is one of two assay component(s) measured or calculated from the ACEA_AR assay. […]
Records with an inconclusive call do not appear. The source made the active and inactive calls. The calls were made as follows: active = hit-call score of the fitted dose curve at least 0.9, where 1 is the maximum; inconclusive = response in the unintended direction; inactive = score below 0.9.
Your response should consist of one outcome taken from class 1 = active, class 0 = inactive

Some solved cases for reference:
c1c[nH]cn1 = class 0
C1CN(SSN2CCOCC2)CCO1 = class 0
OC1CCCC1 = class 0
CCCCC(CC)CCC(CC(C)C)OS(=O)(=O)O (stereo not given) = class 1
CCCCC/C=C\CCC=O = class 1
CC(C)(C)c1ccc(-c2ccc(C(C)(C)C)cc2)cc1 = class 0
C1=Cc2ccccc2C1 = class 0
CCO[Si](C)(OCC)OCC = class 0

Problem: GET /call?item= CCCc1ccc(OC)cc1 returns the recorded outcome of this test.
Solution: class 0

Problem: GET /call?item= CCCCCCCCO[C@@H]1O[C@H](CO)[C@@H](O)[C@H](O)[C@H]1O returns the recorded outcome of this test.
Solution: class 0

###

- subject of test: Glucocorticoid receptor (Homo sapiens)
- assay protocol: ATG_GR_TRANS: Attagene TRANS-FACTORIAL HepG2 Assay for human Glucocorticoid Receptor (GR) (AID 2282978);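 note: activators score as hits since higher reporter transcript over DMSO is fitted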
- reported conditions: HepG2 Attagene TRANS GR reporter, mRNA transcription
Inconclusive results are not listed. The source made the active and inactive calls. Rule for the calls: active = hit-call score of the fitted dose curve at least 0.9, where 1 is the maximum; inconclusive = response in the unintended direction; inactive = score below 0.9.
Your response should consist of one outcome taken from active, inactive

NC(=O)NNC(N)=O = inactive
CC(C)c1ccc(C#N)cc1 = inactive
SCCc1cnccn1 = inactive
O=C1CCCCCCCCCCCCCCCO1 = inactive
CC(=O)c1ccc[nH]1 = inactive

Problem: GET /call?item= c1ccc2c(c1)ccc1cc3c(ccc4ccccc43)cc12 returns the recorded outcome of this test.
Solution: inactive

Problem: GET /call?item= CCCCCCCCCCc1ccccc1 returns the recorded outcome of this test.
Solution: inactive

Problem: GET /call?item= O=c1[nH]nc(-c2ccc([N+](=O)[O-])o2)o1 returns the recorded outcome of this test.
Solution: inactive

Problem: GET /call?item= CCOC(F)(F)C(F)(F)C(F)(F)C(F)(F)F returns the recorded outcome of this test.
Solution: inactive

Problem: GET /call?item= C[C@]12CCC(=O)C=C1CC[C@@H]1[C@@H]2C(=O)C[C@@]2(C)[C@H]1CC[C@]2(O)C(=O)CO returns the recorded outcome of this test.
Solution: inactive

Problem: GET /call?item= O=C1Nc2ccccc2C1(c1ccc(O)cc1)c1ccc(O)cc1 returns the recorded outcome of this test.
Solution: inactive

Problem: GET /call?item= O=C1CC2CC1C1CCCC21 (stereo not drawn) returns the recorded outcome of this test.
Solution: inactive

Problem: GET /call?item= CC(=O)[C@@]1(O)CC[C@H]2[C@@H]3C[C@H](C)C4=CC(=O)C=C[C@]4(C)[C@@]3(F)[C@@H](O)C[C@@]21C returns the recorded outcome of this test.
Solution: active

###

- subject of test: PGR (gene 5241)
- assay protocol: TOX21_PR_BLA_Followup_Antagonist_ratio: Tox21 HEK293 Progesterone Receptor (PR) Antagonism Beta-lactamase Follow-Up Assay, Ratio (AID 2283934);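 note: PR-UAS-bla HEK293T cells stimulated with 1 nM R5020 agonist for 16 hr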
The source made the active and inactive calls. How the source made its calls: active means hit-call score of the fitted dose curve at least 0.9, where 1 is the maximum; inconclusive means response in the unintended direction; inactive means score below 0.9.
Your response should consist of one outcome taken from Yes for active, No for inactive

Some solved cases for reference:
C[C@]12CCC(=O)C=C1CC[C@@H]1[C@@H]2C(=O)C[C@@]2(C)[C@H]1CC[C@]2(O)C(=O)CO = No
C#CC1(O)CC[C@H]2[C@@H]3CCC4=CCCC[C@@H]4[C@H]3CC[C@@]21C (stereo partly specified) = No
C[C@]12C=CC(=O)C=C1CC[C@@H]1[C@@H]2[C@@H](O)C[C@@]2(C)[C@H]1CC[C@]2(O)C(=O)CO = No

Problem: GET /call?item= CCOC(=O)c1ccccc1C(=C1C=C(Br)C(=O)C(Br)=C1)c1cc(Br)c(O)c(Br)c1 returns the recorded outcome of this test.
Solution: Yes

Problem: GET /call?item= Cc1ccc(C(C)c2ccc(C)c(C)c2)cc1C returns the recorded outcome of this test.
Solution: No

Problem: GET /call?item= CC(=O)[C@H]1[C@H](C#N)C[C@H]2[C@@H]3CC=C4C[C@@H](O)CC[C@]4(C)[C@H]3CC[C@@]21C returns the recorded outcome of this test.
Solution: Yes
